method: qHTS of pediatric cancer cell lines to identify multiple opportunities for drug repurposing: Primary screen for SJ-GBM2 cells (AID 1347091)
run.conditions: SJ-GBM2 viability, CellTiter-Glo luminescence, 48 h; series mostly up to 46 µM
Results filed as inconclusive are left out. The source made the active and inactive calls. Calls follow the shape of the dose curve; as a rule, active = well fitted cell-killing curve with a large enough effect; inconclusive = small, poorly fitted or top-dose-only effect; inactive = no such curve, though single readings can be large or run the other way.
Classes used: active, inactive

{"compound": "CCc1cnn2c(NCc3ccc[n+]([O-])c3)cc(N3CCCC[C@@H]3CCO)nc12", "class.assignment": "active"}
{"compound": "COc1ccc(C=Cc2cc(OC)c(OC)c(OC)c2)cc1NC(=O)[C@H](N)CO", "class.assignment": "active"}
{"compound": "COc1cc(CCc2cc(NC(=O)c3ccc(N4C[C@@H](C)N[C@@H](C)C4)cc3)n[nH]2)cc(OC)c1", "class.assignment": "active"}
{"compound": "NC(=O)N1CCC(CC(=O)N2CCC([C@H]3c4ncc(Br)cc4CCc4cc(Cl)cc(Br)c43)CC2)CC1", "class.assignment": "active"}
{"compound": "C=C1CCC2[C@](C)(CO)C(O)CC[C@]2(C)C1CC=C1C(=O)OCC1O (stereo partly drawn)", "class.assignment": "inactive"}
{"compound": "CC(=O)O[C@]1(C(C)=O)CC[C@H]2[C@@H]3C=C(C)C4=CC(=O)CC[C@]4(C)[C@@H]3CC[C@@]21C", "class.assignment": "active"}
{"compound": "CC(=O)ON=C1C(c2c(O)[nH]c3cc(Br)ccc23)=Nc2ccccc21", "class.assignment": "active"}
{"compound": "CN[C@@H]1C[C@H]2O[C@@](C)([C@H]1OC)n1c3ccccc3c3c4c(c5c6ccccc6n2c5c31)C(=O)N[C@H]4O", "class.assignment": "active"}

---

method: qHTS for identification of novel therapeutic agents for treatment of microphthalmiaassociated transcription factor (MiT) renal cell carcinoma (RCC) (AID 1963991); also: potency is read from the fitted curve at half-maximal effect
run.conditions: TFE3-RCC UOK109 viability, CellTiter-Glo, 48 h; active = Z-AUC below -0.8 in all three lines
Inconclusive results are not listed. Active and inactive are the calls of the source. Non-standard residues stand in square brackets, D forms with d. Residues, ends and D or L forms follow the SMILES beside them. *: point of attachment. Nva = CCC[C@H](N)C(=O)O; Cbz = O=C(OCc1ccccc1)*
quantity.name: Potency

{"compound": "O=C1NC(=O)C(=Cc2ccc3nccc(-c4ccncc4)c3c2)S1", "quantity.name": "Potency", "reported.measurement": "833 nM (active)"}
{"compound": "CCC[C@@H](C=O)NC(=O)[C@H](CC(C)C)NC(=O)[C@H](CC(C)C)NC(=O)OCc1ccccc1 (Cbz-Leu-Leu-[Nva]-aldehyde)", "quantity.name": "Potency", "reported.measurement": "4180 nM (active)"}
{"compound": "CS[C@H]1SC[C@@H]2C(=O)N(C)[C@H](C(C)C)C(=O)OC[C@H](NC(=O)c3cnc4ccccc4n3)C(=O)N[C@H](C)C(=O)N(C)[C@@H]1C(=O)N(C)[C@H](C(C)C)C(=O)OC[C@H](NC(=O)c1cnc3ccccc3n1)C(=O)N[C@H](C)C(=O)N2C", "quantity.name": "Potency", "reported.measurement": "8.33 nM (active)"}
{"compound": "COc1cc([C@@H]2c3cc4c(cc3[C@H](O)[C@H]3COC(=O)[C@@H]23)OCO4)cc(OC)c1OC", "quantity.name": "Potency", "reported.measurement": "83.3 nM (active)"}
{"compound": "CNC(=O)Nc1ccc(-c2nc(N3CC4CCC(C3)O4)c3cnn(C4CCC5(CC4)OCCO5)c3n2)cc1", "quantity.name": "Potency", "reported.measurement": "41.8 nM (active)"}

---

System: GB4
method: qHTS profiling for inhibitors of Plasmodium falciparum proliferation (AID 504749); also: nearly all actives have a fitted effect of over 60% in size
run.conditions: P. falciparum in erythrocytes, SYBR Green DNA, 72 h; series mostly up to 28.7 µM
Records with an inconclusive call do not appear. Activity calls are given as the source filed them. Calls come from the whole dose curve; as a rule, active = well fitted inhibition curve with a large enough effect; inconclusive = small, poorly fitted or top-dose-only effect; inactive = flat fitted curve, though single readings scatter.
Possible outcomes: active, inactive

{"compound": "Nc1nc2c(c(=O)[nH]1)N(C=O)[C@H](CNc1ccc(C(=O)N[C@@H](CCC(=O)O)C(=O)O)cc1)CN2", "class.assignment": "inactive"}
{"compound": "COc1ccc([C@@H]2CNC(=O)C2)cc1OC1CCCC1", "class.assignment": "inactive"}
{"compound": "OCC(O)C(O)C(O)CO (stereo not given)", "class.assignment": "inactive"}
{"compound": "CCC(C(=O)O)C1CCC(C)C(C(C)C(O)C(C)C(=O)C(CC)C2OC3(C=CC(O)[C@@]4(CC[C@](C)(C5CC[C@@](O)(CC)C(C)O5)O4)O3)C(C)CC2C)O1 (stereo not given in full)", "class.assignment": "active"}
{"compound": "COc1ccc2c(c1OC)C(=O)OC2[C@H]1c2c(cc3c(c2OC)OCO3)CCN1C (stereo not given in full)", "class.assignment": "inactive"}

---

method: qHTS Screen of the MIPE 4.0 Collection Against Ewings Sarcoma (RDES) (AID 1259252); also: nearly all actives have a fitted effect of over 35% in size
run.conditions: RD-ES Ewing sarcoma viability, CellTiter-Glo, 48 h; series mostly up to 45.8 µM
Records with an inconclusive call do not appear. Activity calls are given as the source filed them. Calls follow the shape of the dose curve; as a rule, active = well fitted inhibition curve with a large enough effect; inconclusive = small, poorly fitted or top-dose-only effect; inactive = no such curve, though single readings can be large or run the other way.
Labels: active, inactive

{"compound": "CCN(CC)CCNC(=O)c1c(C)[nH]c(C=C2C(=O)Nc3ccc(F)cc32)c1C", "class.assignment": "active"}
{"compound": "CC(Cc1ccc(O)c(O)c1)(NN)C(=O)O (configuration not stated)", "class.assignment": "inactive"}
{"compound": "CCOC(=O)C=C[C@H](C[C@@H]1CCNC1=O)NC(=O)[C@@H](CC(=O)[C@@H](NC(=O)c1cc(C)on1)C(C)C)Cc1ccc(F)cc1", "class.assignment": "inactive"}
{"compound": "Cc1cnn(C)c1C(=O)Nc1cc(Nc2ccc3c(C=Cc4ccccn4)n[nH]c3c2)ccc1F", "class.assignment": "active"}
{"compound": "Cn1c(Nc2ccc(C(F)(F)F)cc2)nc2cc(Oc3ccnc(-c4ncc(C(F)(F)F)[nH]4)c3)ccc21", "class.assignment": "active"}
{"compound": "CC(=O)O[C@@]12CO[C@H]1C[C@H](O)[C@@]1(C)C(=O)[C@H](O)C3=C(C)[C@@H](OC(=O)C(O)[C@@H](NC(=O)OC(C)(C)C)c4ccccc4)C[C@@](O)([C@@H](OC(=O)c4ccccc4)[C@@H]21)C3(C)C (some centres not stated)", "class.assignment": "inactive"}
{"compound": "O=C(Nc1nnc(-c2ccco2)o1)c1cc(-c2ccccc2)nc2ccccc12", "class.assignment": "active"}
{"compound": "CCCCCCCCCCCCCCCC(=O)OC[C@@H](NC(=O)C(Cl)Cl)[C@H](O)c1ccc([N+](=O)[O-])cc1", "class.assignment": "inactive"}
{"compound": "Cc1ccc2nc(NCCN)c3ncc(C)n3c2c1", "class.assignment": "active"}
{"compound": "CC(=O)SCC(Cc1ccccc1)C(=O)NCC(=O)OCc1ccccc1 (configuration not stated)", "class.assignment": "active"}
{"compound": "CC(C)(O)Cn1c(NC(=O)c2ccc(-c3cn[nH]c3)s2)nc2cc(CN3CCOCC3)ccc21", "class.assignment": "active"}
{"compound": "CCCNC(=O)[C@H]1O[C@H]1C(=O)N[C@H](C(=O)N1CCC[C@@H]1C(=O)OC)C(C)CC (some centres not stated)", "class.assignment": "active"}
{"compound": "N#CC(=C(O)c1ccc(Cl)cc1Cl)c1nc2cc(Cl)ccc2c(=O)[nH]1", "class.assignment": "inactive"}
{"compound": "C=CCNc1c(O)cc2c(O)c1C[C@@H](C)C[C@H](OC)[C@@H](O)[C@@H](C)C=C(C)[C@H](OC(N)=O)[C@@H](OC)C=CC=C(C)C(=O)N2", "class.assignment": "active"}
{"compound": "COc1cccc2c1C(=O)c1c(O)c3c(c(O)c1C2=O)C[C@@](O)(C(=O)CO)C[C@H]3O[C@H]1C[C@H](N)[C@H](O)[C@H](C)O1", "class.assignment": "active"}
{"compound": "CCc1cc(C(C)=NOCc2ccc(C3CCCCC3)c(C(F)(F)F)c2)ccc1CN1CC(C(=O)O)C1", "class.assignment": "inactive"}
{"compound": "CO[C@@H]1[C@@H](O)[C@H](O)[C@@H](n2c3c(Cl)cccc3c3c4c(c5c6cccc(Cl)c6[nH]c5c32)C(=O)NC4=O)O[C@@H]1CO", "class.assignment": "active"}

---

method: qHTS of pediatric cancer cell lines to identify multiple opportunities for drug repurposing: Confirmatory screen for SK-N-SH cells (AID 1347129);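 also: cells exposed to compound for 48 h before viability read; nearly all actives have a fitted effect of over 60% in size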
run.conditions: SK-N-SH neuroblastoma cell viability; series mostly up to 46.1 µM
Inconclusive results are not listed. Active and inactive are the calls of the source. The call rests on the fitted dose curve; in most records, active means well fitted cell-killing curve with a large enough effect; inconclusive means small, poorly fitted or top-dose-only effect; inactive means flat fitted curve, though single readings scatter.
Outcomes: true for active, false for inactive

{"compound": "Nc1ncn([C@@H]2O[C@H](CO)[C@@H](O)[C@@H]2O)c(=O)n1", "class.assignment": "true"}
{"compound": "CC(C)C[C@H](NC(=O)[C@@H](NC(=O)c1cccc(-c2ccccc2)n1)[C@@H](C)O)B(O)O", "class.assignment": "true"}
{"compound": "COc1cccc2c1C(=O)c1c(O)c3c(c(O)c1C2=O)C[C@@](O)(C(=O)CO)C[C@@H]3O[C@H]1C[C@H](N)[C@@H](O)[C@H](C)O1", "class.assignment": "true"}
{"compound": "CC1(C)O[C@@H]2C[C@H]3[C@@H]4CCC5=CC(=O)C=C[C@]5(C)[C@@H]4[C@@H](O)C[C@]3(C)[C@]2(C(=O)CO)O1", "class.assignment": "false"}
{"compound": "CC(=O)NCC(=O)N1[C@H]2CC[C@H]1c1cc(Nc3ncc(C(F)(F)F)c(NC4CCC4)n3)ccc12", "class.assignment": "true"}
{"compound": "C=CCNC1=C2C[C@@H](C)C[C@H](OC)[C@@H](O)[C@@H](C)C=C(C)[C@H](OC(N)=O)[C@@H](OC)C=CC=C(C)C(=O)NC(=CC1=O)C2=O", "class.assignment": "true"}
{"compound": "CC[C@]12C=CCN3CC[C@@]4(c5cc([C@@]6(C(=O)OC)C[C@H]7C[C@@H](C(C)(F)F)CN(Cc8c6[nH]c6ccccc86)C7)c(OC)cc5N(C)[C@H]4[C@@](O)(C(=O)OC)[C@H]1OC(C)=O)[C@@H]32", "class.assignment": "false"}
{"compound": "Cc1ncc(-c2ccnc(Nc3ccc(S(C)(=O)=O)cc3)n2)n1C(C)C", "class.assignment": "true"}
{"compound": "COC1=C2C[C@@H](C)C[C@H](OC)[C@@H](O)[C@@H](C)C=C(C)[C@H](OC(N)=O)[C@@H](OC)C=CC=C(C)C(=O)NC(=CC1=O)C2=O", "class.assignment": "true"}
{"compound": "CCc1cnn2c(NCc3ccc[n+]([O-])c3)cc(N3CCCC[C@@H]3CCO)nc12", "class.assignment": "false"}
{"compound": "CC(C=CC(=O)NO)=C[C@@H](C)C(=O)c1ccc(N(C)C)cc1", "class.assignment": "true"}
{"compound": "Cc1ccc([N+](=O)[O-])cc1S(=O)(=O)N(C)N=Cc1cnc2ccc(Br)cn12", "class.assignment": "true"}
{"compound": "COc1cccc2c1C(=O)c1c(O)c3c(c(O)c1C2=O)C[C@@](O)(C(=O)CO)C[C@@H]3O[C@H]1C[C@H](N)[C@H](OC2CCCCO2)[C@H](C)O1 (stereo partly specified)", "class.assignment": "true"}
{"compound": "CC(=O)ON=C1C(c2c(O)[nH]c3cc(Br)ccc23)=Nc2ccccc21", "class.assignment": "true"}
{"compound": "CNC(=O)c1ccc(Nc2cc(Nc3ccccc3S(=O)(=O)C(C)C)c3cc[nH]c3n2)nc1", "class.assignment": "true"}
{"compound": "COc1cccc2c1C(=O)c1c(O)c3c(c(O)c1C2=O)C[C@@](O)(C(C)=O)C[C@H]3O[C@H]1C[C@H](N)[C@H](O)[C@H](C)O1", "class.assignment": "true"}
{"compound": "C=CC(=O)N1CCc2ccc(-n3c(=O)ccc4cnc5ccc(-c6cnn(C)c6)cc5c43)cc21", "class.assignment": "true"}
{"compound": "Cc1cnc(Nc2ccc(N3CCN(C)CC3)cc2)nc1Nc1cccc(S(=O)(=O)NC(C)(C)C)c1", "class.assignment": "true"}
{"compound": "CN[C@H]1[C@@H](O)[C@@H]2O[C@@H]3O[C@H](C)CC(=O)[C@]3(O)O[C@@H]2[C@@H](NC)[C@H]1O", "class.assignment": "false"}
{"compound": "COc1ccc(C(C)=O)c(O)c1", "class.assignment": "false"}
{"compound": "Cc1nc(NC(=O)N2CCC[C@@H]2C(N)=O)sc1-c1ccnc(C(C)(C)C(F)(F)F)c1", "class.assignment": "true"}
{"compound": "NC(=O)Nc1cc(-c2ccc(CN3CCOCC3)cc2)sc1C(N)=O", "class.assignment": "true"}
{"compound": "Cc1cc(Nc2ncc3c(n2)N(C)C(=O)N(c2cc(NC(=O)c4cccc(C(F)(F)F)c4)ccc2C)C3)n(C)n1", "class.assignment": "true"}
{"compound": "COc1ccc2c(c1OC)C(=O)OC2[C@H]1c2c(cc3c(c2OC)OCO3)CCN1C (stereo partly specified)", "class.assignment": "false"}
{"compound": "C=CC(=O)Nc1cccc(Nc2nc(NC3CCC(N(C)C)CC3)nc3c2ncn3C(C)C)c1 (stereo unspecified)", "class.assignment": "true"}
{"compound": "CC[C@@]1([C@@H]2O[C@@H]([C@H]3O[C@@](O)(CO)[C@H](C)C[C@H]3C)C[C@H]2C)CC[C@H]([C@]2(C)CC[C@]3(C[C@H](O)[C@@H](C)[C@@H]([C@@H](C)[C@@H](OC)[C@H](C)C(=O)O)O3)O2)O1", "class.assignment": "true"}
{"compound": "N#Cc1c(C2CCNCC2)cc(-c2c(O)cccc2OCC2CC2)nc1N", "class.assignment": "true"}
{"compound": "COc1cc([C@@H]2c3cc4c(cc3[C@@H](O[C@@H]3O[C@@H]5CO[C@@H](c6cccs6)O[C@@H]5[C@H](O)[C@@H]3O)[C@H]3COC(=O)[C@H]23)OCO4)cc(OC)c1O", "class.assignment": "true"}
{"compound": "O=C1c2c(O)cccc2[C@@H]([C@@H]2O[C@H](CO)[C@@H](O)[C@H](O)[C@H]2O)c2cc(CO)cc(O)c21", "class.assignment": "false"}
{"compound": "Cn1cc(-c2cnn3c(N)c(Br)c([C@H]4CCCNC4)nc23)cn1", "class.assignment": "true"}
{"compound": "CC(=O)SCC(Cc1ccccc1)C(=O)NCC(=O)OCc1ccccc1 (stereo unspecified)", "class.assignment": "false"}
